This collection of values is drawn from patent US20090082342A1.

target: 5-HT2A receptor (Homo sapiens, UniProt P28223); assay: R-SAT functional receptor assay, inverse agonist activity at 5-HT2A
Sequence (P28223 whole entry): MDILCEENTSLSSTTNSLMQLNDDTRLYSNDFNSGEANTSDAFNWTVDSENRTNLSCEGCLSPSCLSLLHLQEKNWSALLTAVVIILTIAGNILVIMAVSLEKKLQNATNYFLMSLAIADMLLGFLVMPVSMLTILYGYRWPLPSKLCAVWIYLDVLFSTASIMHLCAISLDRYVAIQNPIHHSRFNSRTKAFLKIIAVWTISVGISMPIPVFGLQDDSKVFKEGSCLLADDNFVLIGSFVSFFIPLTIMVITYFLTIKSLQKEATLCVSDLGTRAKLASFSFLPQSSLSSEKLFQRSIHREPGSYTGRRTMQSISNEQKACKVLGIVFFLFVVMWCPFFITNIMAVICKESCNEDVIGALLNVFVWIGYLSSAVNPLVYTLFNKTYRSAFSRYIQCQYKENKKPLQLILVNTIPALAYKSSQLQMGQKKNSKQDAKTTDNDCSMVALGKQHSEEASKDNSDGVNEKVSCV
Counter-ions that a name gives are not always drawn.
molecules and their reported IC50
# include the unit after the value

See these solved cases before continuing.
CC(C)COc1ccc(CNC(=O)N(Cc2ccc(F)cc2)C2CCNCC2)cc1 [Formula (II), Hydrochloride] : 2.51 nM
CC(C)COc1ccc(CNC(=O)N(Cc2ccc(F)cc2)C2CC[N+](C)([O-])CC2)cc1 (centres unmarked) : 31.6 nM
CN1CCC(N(Cc2ccc(F)cc2)C(=O)NCc2ccc(O)cc2)CC1 [Formula (I), Hydrochloride] : 31.6 nM
CN1CCC(N(Cc2ccc(F)cc2)C(=O)NCc2ccc(OCC(C)(C)O)cc2)CC1 [Formula (III), Hydrochloride] : 2 nM

# next molecule below
The molecule listed as C[C@H](CO)COc1ccc(CNC(=O)N(Cc2ccc(F)cc2)C2CCN(C)CC2)cc1 shows IC50 equal to 3.16 nM

* * *

target: 5-HT2A receptor (Homo sapiens); test: R-SAT functional receptor assay, antagonist activity at 5-HT2A
Counter-ions that a name gives are not always drawn.
compounds and their reported Ki
# include the unit after the value

CC(C)COc1ccc(CNC(=O)N(Cc2ccc(F)cc2)C2CCNCC2)cc1 [Formula (II), Hydrochloride] : 1.26 nM
CN1CCC(N(Cc2ccc(F)cc2)C(=O)NCc2ccc(O)cc2)CC1 [Formula (I), Hydrochloride] : 12.6 nM
CC(C)COc1ccc(CNC(=O)N(Cc2ccc(F)cc2)C2CC[N+](C)([O-])CC2)cc1 (stereo not shown) [Formula (V)] : 31.6 nM

# next compound below
With 5-HT2A receptor (Homo sapiens) as the test system, CN1CCC(N(Cc2ccc(F)cc2)C(=O)NCc2ccc(OCC(C)(C)O)cc2)CC1 [Formula (III), Hydrochloride] showed Ki of 1 nM

* * *

molecular target: UniProt:P28335; experiment: R-SAT functional receptor assay, antagonist activity at 5-HT2C
Sequence (P28335 33-458): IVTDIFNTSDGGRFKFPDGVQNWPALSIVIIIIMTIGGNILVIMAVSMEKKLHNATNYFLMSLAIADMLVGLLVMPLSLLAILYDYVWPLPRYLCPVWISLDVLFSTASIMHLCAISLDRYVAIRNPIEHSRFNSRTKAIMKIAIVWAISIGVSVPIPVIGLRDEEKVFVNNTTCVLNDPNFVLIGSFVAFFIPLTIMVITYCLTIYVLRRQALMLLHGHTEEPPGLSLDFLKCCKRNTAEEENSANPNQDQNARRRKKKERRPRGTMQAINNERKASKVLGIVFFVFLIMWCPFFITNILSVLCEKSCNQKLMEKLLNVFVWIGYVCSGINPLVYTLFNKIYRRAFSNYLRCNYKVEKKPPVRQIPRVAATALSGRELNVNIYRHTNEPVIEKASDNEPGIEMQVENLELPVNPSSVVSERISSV
Structures can show the parent of a compound that is named as a salt.
molecules and their reported Ki
Return type: number; implicit unit µM.

See these solved cases before continuing.
CN1CCC(N(Cc2ccc(F)cc2)C(=O)NCc2ccc(O)cc2)CC1 [Formula (I), Hydrochloride] : 0.316
CC(C)COc1ccc(CNC(=O)N(Cc2ccc(F)cc2)C2CCNCC2)cc1 [Formula (II), Hydrochloride] : 0.1
C[C@H](CO)COc1ccc(CNC(=O)N(Cc2ccc(F)cc2)C2CCN(C)CC2)cc1 : 0.158
CN1CCC(N(Cc2ccc(F)cc2)C(=O)NCc2ccc(OCC(C)(C)O)cc2)CC1 [Formula (III), Hydrochloride] : 0.158

# next molecule below
The molecule listed as CC(C)COc1ccc(CNC(=O)N(Cc2ccc(F)cc2)C2CC[N+](C)([O-])CC2)cc1 (centres unmarked) shows Ki equal to 0.398
